test system: normal human induced pluripotent stem cell (hiPSC) cardiomyocyte; conditions: normal hiPSC cardiomyocytes
measurementType: Cessation of Beating (µM)

In the examples that follow, each entry is paired with its recorded Cessation of Beating.
>>> numericreadout("Cc1cccnc1OCC(=NOCc1ccccc1)c1ccccc1")
133
>>> numericreadout("Cl.NC(COc1cc(C(F)(F)F)cc(C(F)(F)F)c1)c1ccccc1 (stereo not shown)")
133

a. CCCc1ccccc1OCC(N)c1ccccc1 (stereo not shown)
b. CNC(COc1cccc(C)c1C)c1ccccc1 (stereo not shown)
Returns the identifier with the smallest measured Cessation of Beating among a and b . Select an item and report its label. a

###

experiment: Metabolism in human hepatic S9; settings: 0.5 mg of protein
measurementType: % Metabolism Human S9 (%)
Give the number; % is assumed, so skip it.

Look up and state reported % Metabolism Human S9 for NC(COc1ccccc1C(F)(F)F)c1ccccc1 (stereo not shown) [drawing 308] 28.0

Look up and state reported % Metabolism Human S9 for Cc1cc(C)cc(OCC(N)c2ccccc2)c1 (stereo not shown) [drawing 306] 39.2

Look up and state reported % Metabolism Human S9 for NC(COc1cc(C(F)(F)F)cc(C(F)(F)F)c1)c1ccccc1 (stereo not shown) [drawing 305] 41.1

Look up and state reported % Metabolism Human S9 for Cc1ccccc1OCC(N)c1ccccc1 (stereo not shown) [drawing 307] 7.0
